# maps each entry to its glycan array binding signal (z-score)
- Experimental Target: Gal(b1-4)GlcNAc(b1-2)Man(a1-6)Man(b1-4)GlcNAc(b1-4)GlcNAc
- Procedure Details: glycan array binding signal (z-score within array); higher = stronger binding
- Measurement Parameters: glycan notation: IUPAC condensed, linker removed
This is one part of a sample in which the strongest signals are shown more often than they occur.

Below: 3 binders and their reported glycan array binding signal (z-score).
| Binder | Quantity Name | Reported Value |
| --- | --- | --- |
| BC2L-A (Burkholderia cenocepacia), Q1BKJ8_BURCA (protein) ADSQTSSNRAGEFSIPPNTDFRAIFFANAAEQQHIKLFIGDSQEPAAYHKLTTRDGPREATLNSGNGKIRFEVSVNGKPSATDARLAPINGKKSDGSPFTVNFGIVVSEDGHDSDYNDGIVVLQWPIG | glycan array binding signal (z-score) | -0.182 |
| SSR1 (Sclerotium rolfsii), A0A0M3KL30 (protein) TYKITVRVYQTNPDAFFHPVEKTVWKYANGGTWTITDDQHVLTMGGSGTSGTLRFHADNGESFTATFGVHNYKRWCDIVTNLAADETGMVINQQYYSQKNREEARERQLSNYQVKNAKGRNFQIVYTEAEGNDLHANLIIG | glycan array binding signal (z-score) | -0.337 |
| Mg1lysM (Mycosphaerella graminicola) (protein) QRNPITITPQFDCGATNSQQYVARSGDTLTKIAQEIYHDVVGVCDIARANNLADPNRIDAGTPYTIPINCQTYDRNSCL | glycan array binding signal (z-score) | -0.083 |

Now examine the next entry.
Form field: reported glycan array binding signal (z-score) of FedF (Escherichia coli), Q47212 (protein) MRLKYILIIPLLLISLSVFASTLQVDKSVSYDWINSSASSAQVTGTLLGTGKTNTTQMPALYTWQHQIYNVNFIPSSSGTLTCQAGTILVWKNGRETQYALECRVSIHHSSGSINESQWGQQSQVGFGTACGNKKCRFTGFEISLRIPPNAQTYPLSSGDLKGSFSLTNKEVNWSASIYVPAIAKSYRLDTSITLPDTVNLKQNQATPVYYTFSAPSVSNTITGIPNQNDMPSSNVKLTIGPIQSKTTALYVQPDATGSWYDLSKSITMTVVKSSMLNFKGINAKPGNVTLSVPIVFEIQ
0.184
